Molecular target: AuroraB (Homo sapiens, UniProt Q96GD4)
Construct: 20 μL of AuroraB FL H is for a final volume of 41 μL; His
Sequence (Q96GD4 whole entry): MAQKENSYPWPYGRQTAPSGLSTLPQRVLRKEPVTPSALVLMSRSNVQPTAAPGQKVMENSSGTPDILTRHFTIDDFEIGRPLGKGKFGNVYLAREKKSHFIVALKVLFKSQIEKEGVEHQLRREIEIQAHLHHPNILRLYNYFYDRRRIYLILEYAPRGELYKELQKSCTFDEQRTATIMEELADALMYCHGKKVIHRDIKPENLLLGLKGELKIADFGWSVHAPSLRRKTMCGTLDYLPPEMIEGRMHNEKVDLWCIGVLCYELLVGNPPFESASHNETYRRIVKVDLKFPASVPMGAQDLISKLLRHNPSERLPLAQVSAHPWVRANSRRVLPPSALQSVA
Assay: AuroraB Homogeneous Time Resolved Fluorescent (HTRF) kinase assay
Type: biochemical
Details: average; read-out: AurB_IC50_IP (uM Avg)
recorded endpoint: IC50 (µM)

* COc1cnc2c(Sc3ccc(Nc4nnc(-c5ccc(F)cc5)c5ccccc45)cc3)ccnc2c1 [compound 356] | 0.012
* COc1ccc2nccc(Oc3ccc(Nc4nnc(-c5ccc6c(c5)OCO6)c5ccccc45)cc3)c2n1 [compound 551] | 0.017
* COc1cc2c(Oc3ccc(Nc4nnc(-c5ccccc5)c5ccccc45)cc3)ccnc2cc1OCc1ccccc1 [compound 326] | 0.039
* COc1cnc2c(Oc3ccc(Nc4nnc(-c5cc(F)cc(F)c5)c5ccccc45)cc3)ccnc2c1 [compound 539] | 0.02
* COCCOc1nnc(Nc2ccc(Sc3ccnc4cc(OC)cnc34)cc2)c2ccccc12 [compound 515] | 0.012
* COc1cnc2c(Oc3ccc(Nc4nnc(C#CC(C)(C)C)c5ccccc45)cc3)ccnc2c1 [Example 31] | 0.008
* COc1cnc2c(Sc3ccc(Nc4nnc(-c5ccc6c(c5)OCO6)c5ccccc45)cc3)ccnc2c1 [compound 530] | 0.014

====

Molecular target: AuroraB (Homo sapiens, UniProt Q96GD4)
Construct: 20 μL of AuroraB FL H is for a final volume of 41 μL; His
Assay: AuroraB Homogeneous Time Resolved Fluorescent (HTRF) kinase assay
Type: biochemical
Conditions: average; read-out: AurB_IC50_IP (uM Avg)
Recorded IC50, one value per entry.
recorded endpoint: IC50 (µM)

• COc1cnc2c(Oc3ccc(Nc4nnc(-c5ccccc5)c5ccccc45)nc3)ccnc2c1 = 0.012
• CCc1cc(-c2ccc(C)cc2)nnc1Nc1ccc(Sc2ccnc3cc(OC)cnc23)cc1 = 0.032
• c1ccc2c(-c3ccc4c(c3)OCO4)nnc(Nc3ccc(Sc4ccnc5ccncc45)cc3)c2c1 = 0.007
• Cc1csc(-c2nnc(Nc3ccc(Sc4ccnc5ccsc45)cc3)c3ccccc23)c1 = 0.051
• COc1cnc2c(Sc3ccc(Nc4nnc(N5CCN6CCC[C@@H]6C5)c5ccccc45)cc3)ccnc2c1 = 0.006
• COc1ccc(F)cc1-c1nnc(Nc2ccc(Oc3ccnc4cc(C#N)ccc34)cc2)c2ccccc12 = 0.013

====

Molecular target: AuroraA-TPX2 (Homo sapiens)
Construct: 20 μL of AuroraA-TPX2 KD GST for a final volume of about 41 μL; GST
Sequence (O14965 133-383 limits assumed): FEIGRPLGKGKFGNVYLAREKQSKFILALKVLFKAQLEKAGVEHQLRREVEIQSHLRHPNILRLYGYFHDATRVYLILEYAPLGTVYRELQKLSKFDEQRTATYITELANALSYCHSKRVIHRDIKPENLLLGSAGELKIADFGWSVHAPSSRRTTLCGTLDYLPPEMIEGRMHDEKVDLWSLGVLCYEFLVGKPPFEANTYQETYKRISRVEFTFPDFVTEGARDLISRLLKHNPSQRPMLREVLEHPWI
Sequence (Q9ULW0 1-43 partner limits assumed): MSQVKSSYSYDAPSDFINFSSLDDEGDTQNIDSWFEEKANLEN
Experiment: AuroraA-TPX2 Homogeneous Time Resolved Fluorescent (HTRF) kinase assay
Assay type: biochemical
Conditions: average; read-out: AurA_IC50_IP (uM Avg)
recorded endpoint: IC50 (µM)

* COc1cnc2c(Oc3ccc(Nc4nnc(-c5ccc(SC)cc5)c5ccccc45)cc3)ccnc2c1 | 0.038
* COc1cc(F)cc2nccc(Sc3ccc(Nc4nnc(-c5ccc(Cl)cc5)c5ccccc45)cc3)c12 | 0.112
* COc1cnc2c(Oc3ccc(Nc4nnc(-c5ccc(C)c(Cl)c5)c5ccccc45)cc3)ccnc2c1 | 0.034

====

Target: AuroraB (Homo sapiens, UniProt Q96GD4)
Construct: 20 μL of AuroraB FL H is for a final volume of 41 μL; His
Test: AuroraB Homogeneous Time Resolved Fluorescent (HTRF) kinase assay
Format: biochemical
Conditions: average; read-out: AurB_IC50_IP (uM Avg)
recorded endpoint: IC50 (µM)

- COc1cnc2c(Oc3ccc(Nc4nnc(-c5ccc(N(C)C)cc5)c5ccccc45)cc3)ccnc2c1: 0.01
- Cc1ccc(-c2nnc(Nc3ccc(Oc4ccnc5ccncc45)cc3)c3ccccc23)nc1: 0.012
- COc1cnc2c(Oc3ccc(Nc4nnc(N5CC[C@H]6CCCC[C@@H]6C5)c5ccccc45)cc3)ccnc2c1: 0.042
- Cc1ccc(-c2nnc(Nc3ccc(Sc4ccnc5cc(C#N)sc45)cc3)c3ccccc23)cn1: 0.009
- CCc1cc(-c2ccc(Cl)cc2)nnc1Nc1ccc(Oc2ccnc3cc(OC)cnc23)cc1: 0.003
- COc1ccc2c(Oc3ccc(Nc4nnc(-c5ccccc5)c5ccccc45)cc3)c(F)cnc2c1: 0.003
